- Test target: Human recombinant carboxy-terminal his-tagged LDHA (amino acids 2-332) (Homo sapiens)
- Procedure text: LDHA enzyme inhibition assay (NADH fluorescence)
- Experimental setup: LDHA IC50 (μM), 1 nM LDHA, NADH and pyruvate, stereochemistry of tested sample given
Endpoint: IC50 (µM)

Look over these answered cases.
Compound: O=C1CC(c2ccsc2)(c2cccc(OCCN3CCCC3=O)n2)NC(=O)C1Sc1ccccc1Cl (stereo not shown)
Unit symbol: µM
IC50: 0.15

Compound: O=C1CC(c2ccsc2)(c2cccc(Sc3ccc(F)cc3)n2)NC(=O)C1Sc1ccccc1Cl (single isomer, unassigned) [Example 160]
Unit symbol: µM
IC50: 0.008

Compound: O=C1CC(c2ccsc2)(c2cccc(Oc3ccccn3)n2)NC(=O)C1Sc1ccccc1Cl (stereo not shown) [Example 96]
Unit symbol: µM
IC50: 0.019

Compound: O=C1CC(c2ccsc2)(c2cccc(OCc3ccc(F)cc3)n2)NC(=O)C1Sc1ccccc1Cl (single isomer, unassigned) [Example 298]
Unit symbol: µM
IC50: 0.063

Compound: COCCCOc1ccc(C2(c3ccsc3)CC(=O)C(Sc3ccccc3Cl)C(=O)N2)cc1 (stereo not shown)
Unit symbol: µM
IC50: 0.008

P. CC(Nc1cccc(C2(c3ccsc3)CC(=O)C(Sc3ccccc3Cl)C(=O)N2)n1)C1CC1 (stereo not shown) [Example 331]
Q. O=C1CC(c2ccsc2)(c2cccc(OC3CCCC3)n2)NC(=O)C1Sc1ccccc1Cl (stereo not shown)
Enquiry: Which entry shows the lesser value of IC50 here, P or Q ? Indicate which entry you chose by stating its label.
Return: Q
